Tested on: A2780
METHOD DESCRIPTION: Cytotoxicity against human A2780 cells after 48 hrs by MTT assay
Assay type: functional, cell-based
TEST PARAMETERS: A2780, 48 h
Parameter: IC50. Scope: all listed entries.
MEASUREMENT TYPE: IC50 (nM)

1. C/C=C(\C)C(=O)N[C@@H](c1ccccc1)[C@@H](O)C(=O)O[C@H]1C[C@@]2(O)[C@@H](OC(=O)c3cccc(N=[N+]=[N-])c3)[C@@H]3[C@]4(OC(C)=O)CO[C@@H]4C[C@H](OC(=O)CC)[C@@]3(C)C(=O)[C@H](O)C(=C1C)C2(C)C :: 2.7
2. C/C=C(\C)C(=O)N[C@@H](c1ccccc1)[C@@H](O)C(=O)O[C@H]1C[C@@]2(O)[C@@H](OC(=O)c3cccc(N=[N+]=[N-])c3)[C@@H]3[C@]4(OC(C)=O)CO[C@@H]4C[C@H](OC(=O)CC(F)(F)F)[C@@]3(C)C(=O)[C@H](O)C(=C1C)C2(C)C :: 33
3. C/C=C(\C)C(=O)N[C@@H](c1ccccc1)[C@@H](O)C(=O)O[C@H]1C[C@@]2(O)[C@@H](OC(=O)c3cccc(N=[N+]=[N-])c3)[C@@H]3[C@]4(OC(C)=O)CO[C@@H]4C[C@H](OC(=O)C4CC4)[C@@]3(C)C(=O)[C@H](O)C(=C1C)C2(C)C :: 22
4. C/C=C(\C)C(=O)N[C@@H](c1ccccc1)[C@@H](O)C(=O)O[C@H]1C[C@@]2(O)[C@@H](OC(=O)c3cccc(N=[N+]=[N-])c3)[C@@H]3[C@]4(OC(C)=O)CO[C@@H]4C[C@H](OC(=O)CN(C)C)[C@@]3(C)C(=O)[C@H](O)C(=C1C)C2(C)C :: 7.2
